# system: Beta-2 adrenergic receptor (Homo sapiens)
# procedure.text: agonist-induced loss of surface beta2AR – cell-based, FAP fluorogen, flow cytometry, primary screen (AID 504454)
# condition.info: Am2.2-beta2AR cells, FAP receptor internalization, concentration not given here
The whole screen tested about 340,000 compounds, of which about 1,400 (0.41%) were called active.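 How the source made its calls: active means response above a set limit, near 3 SD of response in nonfluorescent compounds (cut at about 42% in these data); inactive means the rest.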 The list comes from a sample in which actives are over-represented; it also holds close analogues and randomly drawn compounds.
Outcome codes: active, inactive

compound | system | class.assignment
Oc1ccccc1C1=NN(c2ccccc2)C(c2ccccc2)C1 (stereo not given) | Beta-2 adrenergic receptor (Homo sapiens) | inactive
COCCNC(=O)C1CCN(S(=O)(=O)c2ccc3c(c2)OCCO3)CC1 | Beta-2 adrenergic receptor (Homo sapiens) | inactive
COc1ccc(CCNC(=O)C2CCCN(S(=O)(=O)c3ccc(OC)cc3)C2)cc1 (stereo not given) | Beta-2 adrenergic receptor (Homo sapiens) | inactive
O=C(N/C(=C/c1ccc(Cl)cc1)C(=O)N1CCCCC1)c1ccco1 | Beta-2 adrenergic receptor (Homo sapiens) | inactive
Cc1ccc(NC(=O)COc2ccc(/C=C3/NC(=O)NC3=O)cc2)cc1 | Beta-2 adrenergic receptor (Homo sapiens) | inactive
COCCn1c(C)cc(C(=O)CSc2nnc(C3CC3)n2C2CC2)c1C | Beta-2 adrenergic receptor (Homo sapiens) | inactive
O=C(Nc1cccnc1)c1ccc(Cl)cc1[N+](=O)[O-] | Beta-2 adrenergic receptor (Homo sapiens) | inactive
CCOc1ccccc1N1C(=O)CC(Sc2nccc(C)n2)C1=O (stereo not given) | Beta-2 adrenergic receptor (Homo sapiens) | active
O=C(/C=C/c1ccc(Cl)c([N+](=O)[O-])c1)c1cccnc1 | Beta-2 adrenergic receptor (Homo sapiens) | active
CC(=O)Nc1ccc(N2C(=O)CC(Sc3nccc(C)n3)C2=O)cc1 (stereo not given) | Beta-2 adrenergic receptor (Homo sapiens) | inactive
